Target: FAAH (Mus musculus)
Construct: Proteomes (mouse brain membrane fraction or cell lysates); from tissue; host or cells: mouse brain membrane fraction (or cell lysates, not specified)
Sequence (O08914 whole entry): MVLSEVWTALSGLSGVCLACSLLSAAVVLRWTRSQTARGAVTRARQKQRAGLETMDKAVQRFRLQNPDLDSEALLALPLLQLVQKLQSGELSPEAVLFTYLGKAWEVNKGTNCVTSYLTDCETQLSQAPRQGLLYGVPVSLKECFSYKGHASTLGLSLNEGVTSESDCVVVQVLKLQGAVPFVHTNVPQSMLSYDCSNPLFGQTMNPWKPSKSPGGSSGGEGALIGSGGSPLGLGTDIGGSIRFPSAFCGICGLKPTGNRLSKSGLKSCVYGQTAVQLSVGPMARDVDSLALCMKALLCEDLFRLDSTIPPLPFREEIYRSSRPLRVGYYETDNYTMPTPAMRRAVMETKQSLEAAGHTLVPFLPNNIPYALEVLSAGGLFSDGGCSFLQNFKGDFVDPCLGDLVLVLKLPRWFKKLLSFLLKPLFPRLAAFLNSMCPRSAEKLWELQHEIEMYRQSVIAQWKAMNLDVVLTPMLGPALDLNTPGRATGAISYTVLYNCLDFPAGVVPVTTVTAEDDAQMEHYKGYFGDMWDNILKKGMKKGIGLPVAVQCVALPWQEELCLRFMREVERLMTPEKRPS
Assay: In vitro competitive activity-based protein profiling (gel-based, FP-Rh or HT-01 probe)
Format: biochemical
Settings: 10 μM inhibitor; read-out: % Inhibition at 10 μM, B = FAAH
measured-metric: inhibition at 10 µM

Study these solved cases before continuing.
Entry O=C(c1cnn(C(=O)N2CCN(Cc3ccncn3)CC2)c1)N1CCCC1 ; assay system FAAH (Mus musculus); inhibition at 10 µM recorded at 25 to 75%

Entry O=C(c1ccccc1)N1CCCN(C(=O)n2cc(C(F)(F)F)cn2)CC1 ; assay system FAAH (Mus musculus); inhibition at 10 µM recorded at > 75%

Kindly give each listed record's inhibition at 10 µM.
1. Cc1cnn(C(=O)N2CCCCC2)c1
2. CN1CCCN(C(=O)n2cc(Cl)cn2)CC1
3. Cc1cc(-c2ccccc2)ccc1CN1CCN(C(=O)n2cc(-c3ccccc3)cn2)CC1
4. O=C(N1CCN(Cc2ccc(-c3ccccc3)cc2Cl)CC1)n1cc(C(F)(F)F)cn1

1: > 75%; 2: < 25%; 3: > 75%; 4: > 75%

###

Target: ABHD6 (Mus musculus, UniProt Q8R2Y0)
Construct: Proteomes (mouse brain membrane fraction or cell lysates); from tissue; host or cells: mouse brain membrane fraction (or cell lysates, not specified)
Sequence (Q8R2Y0 1-336): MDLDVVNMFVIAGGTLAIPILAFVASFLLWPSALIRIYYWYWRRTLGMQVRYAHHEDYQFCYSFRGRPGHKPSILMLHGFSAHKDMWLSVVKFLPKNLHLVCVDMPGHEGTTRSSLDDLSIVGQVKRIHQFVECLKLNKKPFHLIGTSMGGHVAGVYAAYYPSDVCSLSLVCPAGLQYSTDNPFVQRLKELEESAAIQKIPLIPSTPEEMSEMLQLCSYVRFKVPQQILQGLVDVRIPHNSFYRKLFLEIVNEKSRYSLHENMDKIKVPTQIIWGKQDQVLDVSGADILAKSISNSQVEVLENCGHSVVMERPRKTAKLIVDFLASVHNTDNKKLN
Test: In vitro competitive activity-based protein profiling (gel-based, FP-Rh or HT-01 probe)
Assay type: biochemical
Details: mouse brain membrane fraction or cell lysates, 30 min preincubation at 37° C.; read-out: Mouse (IC50 value, nM) ABHD6
measured-metric: IC50

Kindly give each listed record's IC50.
1. Cc1cc(-c2ccccc2)ccc1CN1CCN(C(=O)n2cc(C(=O)N3CCC3)cn2)CC1
2. O=C(N1CCN(Cc2ccc(C(F)(F)F)cc2N2CCCC2)CC1)n1cc(-c2ccc(C(F)(F)F)cc2)cn1
3. Cc1cc(N2CCN(C(=O)n3cc(C(F)(F)F)cn3)CC2)c2ccccc2n1

["100 to 1000 nM", "> 1000 nM", "100 to 1000 nM"]

###

Biological target: MAGL (Mus musculus, UniProt O35678)
Construct: Proteomes (mouse brain membrane fraction or cell lysates); from tissue; host or cells: mouse brain membrane fraction (or cell lysates, not specified)
Sequence (O35678 whole entry): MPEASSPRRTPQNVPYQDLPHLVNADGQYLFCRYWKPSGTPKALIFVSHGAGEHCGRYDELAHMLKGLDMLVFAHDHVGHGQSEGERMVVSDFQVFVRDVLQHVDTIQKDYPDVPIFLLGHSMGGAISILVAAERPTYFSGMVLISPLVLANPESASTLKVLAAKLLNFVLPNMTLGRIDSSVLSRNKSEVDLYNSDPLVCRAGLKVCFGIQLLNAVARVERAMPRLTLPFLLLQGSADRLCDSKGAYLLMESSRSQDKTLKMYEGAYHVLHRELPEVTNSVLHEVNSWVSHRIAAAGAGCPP
Assay: In vitro competitive activity-based protein profiling (gel-based, FP-Rh or HT-01 probe)
Assay type: biochemical
Settings: 1 μM inhibitor; gel-based competitive ABPP
measured-metric: inhibition at 1 µM

Entry CCN(Cc1ccc(N2CCOCC2)cc1)C(=O)n1cc(C)cn1 ; assay system MAGL (Mus musculus, UniProt O35678); inhibition at 1 µM recorded at < 25%

Entry Cc1cnn(C(=O)N2CCCN(Cc3ccc(OCc4ccccc4)cc3)CC2)c1 ; assay system MAGL (Mus musculus, UniProt O35678); inhibition at 1 µM recorded at 25 to 75%

Entry O=C(N1CCN(Cc2ccccc2N2CCOCC2)CC1)n1cc(C(F)(F)F)cn1 ; assay system MAGL (Mus musculus, UniProt O35678); inhibition at 1 µM recorded at > 75%

Shift focus to the following entry.
Entry O=C(N1CCN(Cc2ccccc2N2CCCC2)CC1)n1cc(C(F)(F)F)cn1 ; assay system MAGL (Mus musculus, UniProt O35678); inhibition at 1 µM recorded at > 75%
